B1: syntaxin-16 (209–221) peptide [human] / TBC1D23 C-terminal domain [mouse] (parent complex)
chain 1: DDNTLYHRGFTED
chain 2: DRKEVVNIQTWINKPDIKHHFPCKEVKESGHMFPSHLLVTATHMYCLREILSRKGLAYIQSRQALNSVVKITSKKKHPELITFKYGNSSASGIEILAIERYLIPNAGDATRAIKQQIMKVLDALES

Variants of: B1
Assay: ITC
MEASURED PROPERTY: pKd
Please note pKd is a logarithmic value: minus log10 of concentration in mol/L. Answer with that number alone.

Data request, read-out pKd, for chain 1 R8A
4.99
